test.details: Primary qHTS for inhibitors of nuclear receptor binding SET domain protein 2 (NSD2) in an isogenic RCH-ACV NSD2 p.E1099K mutant (9B) (AID 1645876); also: nearly all actives have a fitted effect of over 70% in size
experimental.parameters: RCH-ACV (leukaemia line) NSD2 E1099K (9B) viability, CellTiter-Glo, 72 h; series mostly up to 44.9 µM
Results filed as inconclusive are left out. The source made the active and inactive calls. Calls follow the shape of the dose curve; as a rule, active = well fitted inhibition curve with a large enough effect; inconclusive = small, poorly fitted or top-dose-only effect; inactive = flat fitted curve, though single readings scatter.
Labels: T = active, F = inactive

- compound: "Cc1ccc(Nc2cc(-c3cccc(N4C(=O)c5ccccc5C4=O)c3)ncn2)cc1NS(C)(=O)=O"
  group: "T"
- compound: "O=C(O)c1ccc(-c2c[nH]c3ncc(-c4ccccc4)cc23)cc1C1CCCC1"
  group: "F"
- compound: "Cc1ccn(-c2ccc(-c3ncco3)cc2)c(=O)c1-c1ccc2nc(N)ncc2c1"
  group: "T"
- compound: "CC(C)C(C)C=CC(C)C1CCC2C3=CC=C4CC(O)CCC4(C)C3CCC21C (stereo not given)"
  group: "F"
- compound: "O=C(NC1CCOCC1)c1ccc(-c2cc(-c3cn[nH]c3-c3ccccn3)ccn2)cc1"
  group: "F"

###

test.details: Quantitative High-Throughput drug screen in 47 multiple myeloma cell lines against the NCATS MIPE library collection: KMS27_JCRB cell viability assay (AID 1918970); also: nearly all actives have a fitted effect of over 30% in size
experimental.parameters: KMS27 myeloma cells, CellTiter-Glo ATP viability, 48 h; series mostly up to 45.8 µM
Records with an inconclusive call do not appear. Calls of active or inactive are those of the source. The call rests on the fitted dose curve; in most records, active means well fitted cell-killing curve with a large enough effect; inconclusive means small, poorly fitted or top-dose-only effect, or effect the other way; inactive means no such curve, though single readings can be large or run the other way.
Labels: active, inactive

- molecule: "N[C@H](CSC(c1ccccc1)(c1ccccc1)c1ccccc1)C(=O)O"
  group: "active"
- molecule: "O=C(O)c1ccccc1C(=O)Nc1ccc(-c2ccccc2)cc1"
  group: "inactive"
- molecule: "CC(C)=CC[C@@H](O)C1=CC(=O)c2c(O)ccc(O)c2C1=O"
  group: "active"
- molecule: "O=C(Nc1c(Cl)cncc1Cl)c1ccc(OC(F)F)c(OCC2CC2)c1"
  group: "inactive"
- molecule: "CC(=Cc1ccccc1)C=C1SC(=S)N(CC(=O)O)C1=O"
  group: "active"
- molecule: "COc1cc2ncnc(-n3nc(-c4ccccn4)nc3N)c2cc1OC"
  group: "active"
- molecule: "Cc1nc(N)sc1-c1ccnc(Nc2ccc(N3CCOCC3)cc2)n1"
  group: "active"
- molecule: "O=C(O)C=Cc1ccc(O)c(O)c1"
  group: "active"
- molecule: "CC(C)(C)COc1ccc(-n2cc(C(=O)O)cn2)cc1C#N"
  group: "inactive"
- molecule: "O=C1c2ccccc2-[n+]2ccc3c([nH]c4ccccc43)c21"
  group: "active"
- molecule: "COc1ccc2cccc(CCNC(C)=O)c2c1"
  group: "inactive"
- molecule: "O=C(OCC#CCSc1nnc(-c2cccc3ccccc23)o1)c1cc2ccccc2s1"
  group: "inactive"
- molecule: "Clc1ccc(C(c2ccc(Cl)cc2)n2cc[n+](CC(OCc3ccc(Cl)cc3Cl)c3ccc(Cl)cc3Cl)c2)cc1 (stereo unspecified)"
  group: "active"
- molecule: "CCC(CC)[C@H](NC(C)=O)[C@@H]1[C@H](O)[C@@H](C(=O)O)C[C@@H]1N=C(N)N"
  group: "inactive"
- molecule: "C=C1C(=O)[C@@]23C(CC[C@@H]1[C@H]2O)[C@@]12CO[C@]3(O)[C@@H](O)[C@@H]1C(C)(C)CC[C@@H]2O (stereo partly specified)"
  group: "active"
- molecule: "C[C@H](NC(=O)c1sccc1OCc1ccc(Cl)cc1)c1ccccc1"
  group: "inactive"
- molecule: "O=c1c(-c2ccc(O)cc2)coc2cc(O)ccc12"
  group: "inactive"
- molecule: "COc1cc2nc(-c3ccc(N4CCN(C)CC4)cc3)nc(NCCN3CCOCC3)c2cc1OC"
  group: "active"
- molecule: "Cc1cccc(Nc2nc(-c3ccncc3)cs2)c1"
  group: "active"
- molecule: "CC#CCn1c(N2CCC[C@@H](N)C2)nc2c1c(=O)n(Cc1nc(C)c3ccccc3n1)c(=O)n2C"
  group: "inactive"
- molecule: "CC1CCC(C(=O)N(c2cc(C#CC(C)(C)C)sc2C(=O)O)C2CCC(O)CC2)CC1 (stereo unspecified)"
  group: "inactive"

###

test.details: qHTS of pediatric cancer cell lines to identify multiple opportunities for drug repurposing: Primary screen for SK-N-MC cells (AID 1347093)
experimental.parameters: SK-N-MC viability, CellTiter-Glo luminescence, 48 h; series mostly up to 46 µM
Inconclusive results are not listed. Activity calls are given as the source filed them. The call rests on the fitted dose curve; in most records, active means well fitted cell-killing curve with a large enough effect; inconclusive means small, poorly fitted or top-dose-only effect; inactive means no such curve, though single readings can be large or run the other way.
Labels: t = active, f = inactive

- molecule: "CC[C@]1(O)C[C@@H]2CN(CCc3c([nH]c4ccccc34)[C@@](C(=O)OC)(c3cc4c(cc3OC)N(C=O)[C@@H]3C45CCN4CC=C[C@](CC)([C@H]45)[C@@H](OC(C)=O)[C@]3(O)C(=O)OC)C2)C1 (stereo partly drawn)"
  group: "t"
- molecule: "CC(C)(C)c1ccc(C(O)CCCN2CCC(C(O)(c3ccccc3)c3ccccc3)CC2)cc1 (stereo not drawn)"
  group: "f"
- molecule: "OC[C@@H](O)[C@H](O)[C@H](O)[C@@H](O)CO"
  group: "f"
- molecule: "CC1=C(/C=C/C(C)=C/C=C/C(C)=C/C(=O)Nc2ccc(O)cc2)C(C)(C)CCC1"
  group: "t"
- molecule: "CC(=NNC(=S)N1CCC1)c1ccccn1"
  group: "t"
- molecule: "Nc1ncnc2c1nc(Cl)n2[C@@H]1O[C@H](CO)[C@@H](O)[C@@H]1O"
  group: "t"
- molecule: "CO[C@@H](C(=O)N1Cc2[nH]nc(NC(=O)c3ccc(N4CCN(C)CC4)cc3)c2C1)c1ccccc1"
  group: "t"
- molecule: "O=C(Nc1cc(Cl)cc2c1[nH]c1cnccc12)c1cccnc1"
  group: "t"
- molecule: "CN1CCN(CCOc2cc(OC3CCOCC3)c3c(Nc4c(Cl)ccc5c4OCO5)ncnc3c2)CC1"
  group: "t"
- molecule: "CC=C(C)C(=O)O[C@H]1C(C)=C[C@]23C(=O)[C@@H](C=C(CO)[C@@H](O)[C@]12O)[C@H]1[C@@H](C[C@H]3C)C1(C)C"
  group: "t"
- molecule: "O=C(OCC#CCSc1nnc(-c2cccc3ccccc23)o1)c1cc2ccccc2s1"
  group: "f"
- molecule: "Cc1cccc(C)c1OCC(C)N (stereo not drawn)"
  group: "f"
- molecule: "O=C(NC1CCOCC1)c1ccc(-c2cc(-c3cn[nH]c3-c3ccccn3)ccn2)cc1"
  group: "f"
- molecule: "COc1ccc(-c2oc3c(CC=C(C)C)c(OC4O[C@H](CO)[C@@H](O)[C@H](O)[C@@H]4O)cc(O)c3c(=O)c2OC2O[C@@H](C)[C@H](O)[C@@H](O)[C@@H]2O)cc1 (stereo partly drawn)"
  group: "t"
- molecule: "O=c1cc(-c2ccccc2)oc2cc(O)c(O)c(O)c12"
  group: "f"
- molecule: "CN(C[C@@H]1COCCO1)S(=O)(=O)Nc1ccc2ccc3ncc(-c4cnn(C)c4)cc3c(=O)c2c1"
  group: "t"
- molecule: "N[C@H](CSC(c1ccccc1)(c1ccccc1)c1ccccc1)C(=O)O"
  group: "t"
- molecule: "CC/C(=C(\\c1ccccc1)c1ccc(OCCN(C)C)cc1)c1ccccc1"
  group: "t"

###

test.details: qHTS Screen of the MIPE 4.0 Collection Against Ewings Sarcoma (TC32) (AID 1259256); also: nearly all actives have a fitted effect of over 45% in size
experimental.parameters: TC32 Ewing sarcoma viability, CellTiter-Glo, 48 h; series mostly up to 45.8 µM
Inconclusive results are not listed. The source made the active and inactive calls. The call rests on the fitted dose curve; in most records, active means well fitted inhibition curve with a large enough effect; inconclusive means small, poorly fitted or top-dose-only effect; inactive means no such curve, though single readings can be large or run the other way.
Labels: active, inactive

- compound: "COc1ccc2cc(-c3nc(-c4ccc(S(C)=O)cc4)[nH]c3-c3ccncc3)ccc2c1 (centres undefined)"
  group: "active"
- compound: "COc1ccc(-c2cc(=O)c3c(O)cc(O)cc3o2)cc1O"
  group: "active"
- compound: "CC(=Cc1ccccc1)C=C1SC(=S)N(CC(=O)O)C1=O"
  group: "inactive"
- compound: "Nc1ncnc2c1nc(Cl)n2[C@@H]1O[C@H](CO)[C@@H](O)[C@@H]1O"
  group: "active"
- compound: "COc1cc2nc(-c3ccc(N4CCN(C)CC4)cc3)nc(NCCN3CCOCC3)c2cc1OC"
  group: "active"
- compound: "Nc1ncnc2ccccc12"
  group: "inactive"
- compound: "NC1CCC(Nc2nc(Nc3ccc(C(=O)N4CCCCC4)cc3)c3ncn(-c4cccc(F)c4)c3n2)CC1 (centres undefined)"
  group: "inactive"
- compound: "CC(=O)OC1C(C)OC(Oc2c(-c3ccc(O)cc3)oc3cc(O)cc(O)c3c2=O)C(O)C1OC(C)=O (centres undefined)"
  group: "inactive"
- compound: "O=C(O)c1ccc(-c2cc3cccnc3c(-c3ccc4nonc4c3)n2)cc1"
  group: "active"
- compound: "COc1cc2c(cc1OC)CN(CCc1ccc(NC(=O)c3cc(OC)c(OC)cc3NC(=O)c3cnc4ccccc4c3)cc1)CC2"
  group: "active"
- compound: "CC(C)(C)Cn1c(N)nc2ccc(-c3[nH]c(C(C)(C)C)nc3-c3ccc(F)cc3)nc21"
  group: "active"
- compound: "C=C1C(=O)[C@@]23C(CC[C@@H]1[C@H]2O)[C@@]12CO[C@]3(O)[C@@H](O)[C@@H]1C(C)(C)CC[C@@H]2O (some centres undefined)"
  group: "active"
- compound: "Clc1ccc(C(c2ccc(Cl)cc2)n2cc[n+](CC(OCc3ccc(Cl)cc3Cl)c3ccc(Cl)cc3Cl)c2)cc1 (centres undefined)"
  group: "active"
- compound: "COc1ccc(-c2coc3cc(O)ccc3c2=O)cc1"
  group: "inactive"
- compound: "CC(C)C(C)C=CC(C)C1CCC2C3=CC=C4CC(O)CCC4(C)C3CCC21C (centres undefined)"
  group: "inactive"
- compound: "COc1ccc(-c2coc3cc(O)cc(O)c3c2=O)cc1"
  group: "inactive"
- compound: "COc1ccc(-n2c(C)c([N+](=O)[O-])c3ccc(O)cc32)cc1"
  group: "active"
- compound: "CC(C)(C)NC(=O)Nc1cccc(Nc2ncc(F)c(NC(C)(C)CO)n2)c1"
  group: "active"
- compound: "CC=CCC(C)C(O)C1C(=O)NC(CC)C(=O)N(C)CC(=O)N(C)C(CC(C)C)C(=O)NC(C(C)C)C(=O)N(C)C(CC(C)C)C(=O)NC(C)C(=O)NC(C)C(=O)N(C)C(CC(C)C)C(=O)N(C)C(CC(C)C)C(=O)N(C)C(C(C)C)C(=O)N1C (centres undefined)"
  group: "inactive"
- compound: "O=C(O)c1cc(O)c2c(c1)C(=O)c1cccc(O)c1C2=O"
  group: "inactive"
- compound: "O=C(O)c1c(Cl)c(Cl)c(Cl)c(Cl)c1-c1c2cc(I)c(=O)c(I)c-2oc2c(I)c(O)c(I)cc12"
  group: "active"
- compound: "CO[C@H]1C=CO[C@@]2(C)Oc3c(C)c(O)c4c(O)c(c5c(c4c3C2=O)NC2(CCN(CC(C)C)CC2)N=5)=NC(=O)C(C)=CC=C[C@H](C)[C@H](O)[C@@H](C)[C@@H](O)[C@@H](C)[C@H](OC(C)=O)[C@H]1C"
  group: "inactive"
- compound: "Cc1ccccc1C(C(=O)NC1CCCCC1)N(C(=O)Cn1ccnc1C)c1cccc(F)c1 (centres undefined)"
  group: "active"
- compound: "N[C@@]1(C(=O)O)CS(=O)(=O)[C@H]2[C@H](C(=O)O)[C@H]21"
  group: "active"
- compound: "Clc1ccc(COC(Cn2ccnc2)c2ccc(Cl)cc2Cl)cc1 (centres undefined)"
  group: "active"
- compound: "CC(=O)Nc1ccc([C@H](C)C(=O)Nc2ncc(C(C)C)s2)cc1"
  group: "active"
- compound: "CCNc1cc(NC2CCC(O)CC2)nc(Nc2ccc3c(ccn3Cc3ccccc3)c2)n1 (centres undefined)"
  group: "active"
- compound: "C[N+]1(C)[C@@H]2CC(OC(=O)[C@H](CO)c3ccccc3)C[C@H]1[C@H]1O[C@@H]12 (some centres undefined)"
  group: "inactive"
- compound: "Nc1nc(F)nc2c1ncn2[C@@H]1O[C@H](COP(=O)(O)O)[C@@H](O)[C@H]1O"
  group: "active"
- compound: "CC(C)(C)COc1ccc(-n2cc(C(=O)O)cn2)cc1C#N"
  group: "inactive"
- compound: "COc1cc(O)c2c(c1)C(=O)c1cc(C)cc(O)c1C2=O"
  group: "inactive"
- compound: "O=C(Nc1cc(Cl)cc2c1[nH]c1cnccc12)c1cccnc1"
  group: "active"
- compound: "CCOc1ccc(Nc2nc(-c3c(C)nc4ccccn34)cs2)cc1"
  group: "inactive"
- compound: "C[C@H](NC(=O)C(=O)Nc1ccccc1C(C)(C)C)C(=O)N[C@@H](CC(=O)O)C(=O)COc1c(F)c(F)cc(F)c1F"
  group: "inactive"
- compound: "c1ccc2c(Cc3c[nH]c4ccccc34)c[nH]c2c1"
  group: "active"
- compound: "Cc1ccc(/C=N/NC(=O)c2ccccc2Oc2ccccc2)o1"
  group: "inactive"
- compound: "Cc1nnc(C(C)C)n1C1C[C@H]2CC[C@@H](C1)N2CC[C@H](NC(=O)C1CCC(F)(F)CC1)c1ccccc1 (some centres undefined)"
  group: "active"
- compound: "O=C1c2ccccc2-[n+]2ccc3c([nH]c4ccccc43)c21"
  group: "active"
- compound: "O=c1cc(CN2CCOCC2)occ1OCCCCCSc1ccnc2cc(C(F)(F)F)ccc12"
  group: "active"

Where these numbers come from: PubChem BioAssay (NCATS)
